Tested On: Somatostatin receptor 2 (SSTR2) (human), P30874
Sequence (P30874 whole entry): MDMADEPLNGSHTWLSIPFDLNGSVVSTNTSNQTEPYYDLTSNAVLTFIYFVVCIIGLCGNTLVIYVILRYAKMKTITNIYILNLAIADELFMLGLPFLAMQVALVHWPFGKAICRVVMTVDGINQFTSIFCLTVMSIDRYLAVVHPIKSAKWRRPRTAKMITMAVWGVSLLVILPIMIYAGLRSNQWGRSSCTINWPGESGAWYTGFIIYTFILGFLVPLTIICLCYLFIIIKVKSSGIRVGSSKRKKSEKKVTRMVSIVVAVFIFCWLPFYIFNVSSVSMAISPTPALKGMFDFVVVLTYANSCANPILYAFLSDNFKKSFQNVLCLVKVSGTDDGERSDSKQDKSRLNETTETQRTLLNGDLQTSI
Protocol Conditions: N-octanoyl amide on the N-terminal residue; L-mesityl alanine (Msa) at position 6; D-Trp at position 7; disulfide bridge between the two cysteines
Property Label: IC50
Please make sure the unit comes right after the number.

Query string: Output measured IC50 for this item: PCKNFFWKTFTSCK [Cortistatin analogue 3]
Result string: 2.8 nM
